# test: clinical
# assay context: human, in vivo, iv
quantity measured: MRT (h)
Numbers only, in h.

Completed entries (count: 2):
- compound: "NC(=O)c1ncn([C@@H]2O[C@H](CO)[C@@H](O)[C@H]2O)n1"
  scale unit: "h"
  MRT: 45
- compound: "CCC[C@H](N[C@@H](C)C(=O)N1[C@H](C(=O)O)C[C@@H]2CCCC[C@@H]21)C(=O)O"
  scale unit: "h"
  MRT: 7.6

Required: MRT, one value per compound below.
1. Cc1c(OCC(F)(F)F)ccnc1C[S+]([O-])c1nc2ccccc2[nH]1 (stereo unspecified)
2. CC(CN(C)C)CN1c2ccccc2CCc2ccccc21 (stereo unspecified)

Given back:
1. 1.1
2. 17

Kindly give each listed record's MRT.
1. CCN[C@@H](C)Cc1cccc(C(F)(F)F)c1
2. CC[C@H]1OC(=O)[C@H](C)C(=O)[C@H](C)[C@@H](O[C@@H]2O[C@H](C)C[C@H](N(C)C)[C@H]2O)[C@](C)(OC)C[C@@H](C)C(=O)[C@H](C)[C@H]2N(CCCCn3cnc(-c4cccnc4)c3)C(=O)O[C@]12C
3. Cc1onc(-c2c(F)cccc2Cl)c1C(=O)N[C@@H]1C(=O)N2[C@@H]1SC(C)(C)[C@@H]2C(=O)O
4. CN1[C@@H]2CC[C@H]1C[C@@H](OC(=O)c1c[nH]c3ccccc13)C2
5. C[C@H](/C=C/[C@H](C)C(C)(C)O)[C@H]1CC[C@H]2/C(=C/C=C3C[C@@H](O)C[C@H](O)C3)CCC[C@]12C
6. C=C(CC)C(=O)c1ccc(OCC(=O)O)c(Cl)c1Cl
7. OCCN1C[C@H](O)[C@@H](O)[C@H](O)[C@H]1CO
8. COc1cc2ncnc(Nc3ccc(F)c(Cl)c3)c2cc1OCCCN1CCOCC1

Given back:
18
3.6
1.3
6.3
7.7
0.5
2.7
32
